Where do the numbers come from? From patent US20240182480A1.

Biological target: 5-HT2A (Homo sapiens)
Construct: expressed in transfected cells; the paragraph before it names a CHO-K1-mt aequorin Gα16 cell line
Sequence (P28223 whole entry): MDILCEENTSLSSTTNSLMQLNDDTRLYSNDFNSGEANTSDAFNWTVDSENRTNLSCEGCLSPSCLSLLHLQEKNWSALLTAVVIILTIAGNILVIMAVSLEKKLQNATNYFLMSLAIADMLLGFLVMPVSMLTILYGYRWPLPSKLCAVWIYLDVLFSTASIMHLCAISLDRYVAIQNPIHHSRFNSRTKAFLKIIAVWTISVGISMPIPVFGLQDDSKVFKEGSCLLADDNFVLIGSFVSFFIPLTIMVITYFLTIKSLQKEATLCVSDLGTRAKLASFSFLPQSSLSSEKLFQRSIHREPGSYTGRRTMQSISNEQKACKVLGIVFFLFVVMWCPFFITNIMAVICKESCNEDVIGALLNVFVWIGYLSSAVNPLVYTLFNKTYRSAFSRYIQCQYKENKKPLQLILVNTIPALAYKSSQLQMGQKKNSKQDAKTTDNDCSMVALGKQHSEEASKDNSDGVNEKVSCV
Assay: cell-based
Conditions: 5-HT2A, (EC50, % max activity), FLIPR calcium assay, agonist mode; approximate values
# Lookup of reported EC50 keyed by entry

{"columns": ["smiles-input", "property-measured", "result"],
 "data": [
  ["c1nc2c(nc1N1CCCOCC1)CCNCC2", "EC50", "~2000 nM"]
]}

Switching to the query record.
Query: Would you kindly share the measured EC50 for "FC1(F)CCN(c2cnc3c(n2)CCNCC3)CC1" ?
Result: ~900 nM

====

Target: 5-HT2C (Homo sapiens, UniProt P28335)
Construct: expressed in transfected cells; the paragraph before it names a CHO-K1-mt aequorin Gα16 cell line
Sequence (P28335 33-458): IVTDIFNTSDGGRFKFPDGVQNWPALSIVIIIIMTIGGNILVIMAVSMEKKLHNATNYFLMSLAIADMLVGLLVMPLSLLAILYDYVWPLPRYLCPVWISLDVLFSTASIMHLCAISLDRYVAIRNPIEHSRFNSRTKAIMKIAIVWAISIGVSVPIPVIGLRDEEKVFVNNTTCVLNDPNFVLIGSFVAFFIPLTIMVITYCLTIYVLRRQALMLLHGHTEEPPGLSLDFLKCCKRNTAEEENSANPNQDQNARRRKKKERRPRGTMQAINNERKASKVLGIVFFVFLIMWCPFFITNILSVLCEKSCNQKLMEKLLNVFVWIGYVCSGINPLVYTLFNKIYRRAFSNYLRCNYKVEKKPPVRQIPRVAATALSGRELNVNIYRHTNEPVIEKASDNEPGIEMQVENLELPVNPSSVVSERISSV
Test: 5-HT2C pharmacological screening by FLIPR assay in agonist mode
Format: cell-based
Details: 5-HT2C (EC50, % max activity, FLIPR calcium assay, agonist mode); class symbols
pEC50: −log10 of the molar value.
property-measured: pEC50

Query: Would you kindly share the measured pEC50 for "CN1CCc2[nH]c3ncccc3c2CC1" ?
Result: < 5.22
